- Tested on: C. albicans ATCC 10231
- Assay type: cell-based, Candida albicans
- conditionDetails: ATCC 10231, 24 h, pH 7
Residues, ends and D or L forms follow the SMILES beside them.
MIC CA values by entry

| molecule | MIC CA |
| --- | --- |
| CCCCCCCCCCCC(=O)N[C@@H](Cc1c[nH]c2ccccc12)C(=O)N[C@@H](CCCNC(=N)N)C(=O)N[C@@H](CCCNC(=N)N)C(N)=O [compound 97, C12-WRR-NH2] (HELM PEPTIDE1{[CCCCCCCCCCCC(=O)[*:2]].W.R.R.[am]}$$$$V2.0) | 8 µg/mL |
| CCCCCCCCCCCC(=O)N[C@@H](CCCC)C(=O)N[C@@H](CCCNC(=N)N)C(=O)N[C@@H](CCCNC(=N)N)C(N)=O [compound 65, C12-NleRR-NH2] (HELM PEPTIDE1{[CCCCCCCCCCCC(=O)[*:2]].[Nle].R.R.[am]}$$$$V2.0) | 16 (>16) µg/mL |
| CCCCCCCCCCCCCC(=O)N[C@@H](CO)C(=O)N[C@@H](CCCNC(=N)N)C(=O)N[C@@H](CCCNC(=N)N)C(N)=O [compound 86, C14-SRR-NH2] (HELM PEPTIDE1{[CCCCCCCCCCCCCC(=O)[*:2]].S.R.R.[am]}$$$$V2.0) | 32 µg/mL |
| CCCCCCCCCCCCCC(=O)N[C@@H](CCC)C(=O)N[C@@H](CCCNC(=N)N)C(=O)N[C@@H](CCCNC(=N)N)C(N)=O [compound 70, C14-NvaRR-NH2] (HELM PEPTIDE1{[CCCCCCCCCCCCCC(=O)[*:2]].[Nva].R.R.[am]}$$$$V2.0) | 4 µg/mL |
| CCCCCCCCCCCCCC(=O)N[C@@H](CC(N)=O)C(=O)N[C@@H](CCCNC(=N)N)C(=O)N[C@@H](CCCNC(=N)N)C(N)=O [compound 62, C14-NRR-NH2] (HELM PEPTIDE1{[CCCCCCCCCCCCCC(=O)[*:2]].N.R.R.[am]}$$$$V2.0) | 16 µg/mL |
| CCCCCCCCCCCCCC(=O)N[C@@H](CCCNC(=N)N)C(=O)N[C@@H](CCCNC(=N)N)C(=O)N[C@@H](CCCNC(=N)N)C(N)=O [compound 82, C14-RRR-NH2] (HELM PEPTIDE1{[CCCCCCCCCCCCCC(=O)[*:2]].R.R.R.[am]}$$$$V2.0) | 16 µg/mL |
| CCCCCCCCCCCC(=O)N[C@@H](CCCNC(=N)N)C(=O)N[C@@H](CCCNC(=N)N)C(N)=O [compound 3, C12-RR-NH2, reference compound] (HELM PEPTIDE1{[CCCCCCCCCCCC(=O)[*:2]].R.R.[am]}$$$$V2.0) | 64 µg/mL |
| CCCCCCCCCC(=O)N[C@@H](Cc1c[nH]c2ccccc12)C(=O)N[C@@H](CCCNC(=N)N)C(=O)N[C@@H](CCCNC(=N)N)C(N)=O [compound 96, C10-WRR-NH2] (HELM PEPTIDE1{[CCCCCCCCCC(=O)[*:2]].W.R.R.[am]}$$$$V2.0) | 32 µg/mL |

###

- Test system: human red blood cells (hRBCs)
- Assay type: cell-based
- conditionDetails: red cells of human, 1 h
- Procedure: The hemolysis assay was performed as described earlier according to the method of Avrahami and Shai. Fresh human red blood cells (hRBCs) with anticoagulant (EDTA) were rinsed three times with a PBS (Merck, Darmstadt, Germany) by centrifugation at 800× g for 10 min and resuspended in PBS. […] Subsequently, supernatant was […] to new microtiter plates and absorbance at 540 nm were measured. […]
Residues, ends and D or L forms follow the SMILES beside them.
HC50 values by entry

| molecule | HC50 |
| --- | --- |
| CCCCCCCCCCCC(=O)N[C@@H](CCCNC(=N)N)C(=O)N[C@@H](CCCNC(=N)N)C(N)=O [compound 3, C12-RR-NH2, reference compound] (HELM PEPTIDE1{[CCCCCCCCCCCC(=O)[*:2]].R.R.[am]}$$$$V2.0) | >256 µg/mL |
| CCCCCCCCCCCC(=O)N[C@H](C(=O)N[C@@H](CCCNC(=N)N)C(=O)N[C@@H](CCCNC(=N)N)C(N)=O)[C@@H](C)O [compound 89, C12-TRR-NH2] (HELM PEPTIDE1{[CCCCCCCCCCCC(=O)[*:2]].T.R.R.[am]}$$$$V2.0) | >256 µg/mL |
| CCCCCCCCCCCCCC(=O)N[C@@H](CC[S+](C)[O-])C(=O)N[C@@H](CCCNC(=N)N)C(=O)N[C@@H](CCCNC(=N)N)C(N)=O (stereo partly shown) [compound 54, C14-M(O)RR-NH2] (HELM PEPTIDE1{[CCCCCCCCCCCCCC(=O)[*:2]].[CS(=O)CC[C@H](N[*:1])C(=O)[*:2]].R.R.[am]}$$$$V2.0) | 116.28 (±1.77) µg/mL |
| CCCCCCCCCCCCCC(=O)N[C@@H](Cc1ccccc1)C(=O)N[C@@H](CCCNC(=N)N)C(=O)N[C@@H](CCCNC(=N)N)C(N)=O [compound 26, C14-FRR-NH2] (HELM PEPTIDE1{[CCCCCCCCCCCCCC(=O)[*:2]].F.R.R.[am]}$$$$V2.0) | 39.09 (±1.18) µg/mL |

# credit: paper PMC7024302
